Target: human recombinant GST cleaved CSNK1D (Homo sapiens, UniProt P48730)
Construct: GST (cleaved yes)
Sequence (P48730 whole entry): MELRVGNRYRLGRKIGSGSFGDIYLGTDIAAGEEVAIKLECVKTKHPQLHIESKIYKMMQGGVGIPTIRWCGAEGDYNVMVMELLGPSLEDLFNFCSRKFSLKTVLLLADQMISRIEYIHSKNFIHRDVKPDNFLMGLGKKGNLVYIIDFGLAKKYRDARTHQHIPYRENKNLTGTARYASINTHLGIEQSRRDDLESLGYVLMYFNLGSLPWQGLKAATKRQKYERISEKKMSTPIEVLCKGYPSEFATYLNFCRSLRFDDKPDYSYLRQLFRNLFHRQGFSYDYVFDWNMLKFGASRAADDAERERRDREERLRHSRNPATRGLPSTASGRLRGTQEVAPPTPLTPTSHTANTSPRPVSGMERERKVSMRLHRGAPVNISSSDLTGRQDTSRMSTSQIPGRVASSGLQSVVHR
Assay: Purified Enzyme Assay (ADP-Glo CSNK1D Kinase Assay)
Settings: 2 nM CSNK1D; peptide substrate 150 μM; ATP 20 μM; 45 minutes at room temperature
pIC50: −log10 of the molar value.
Think of 8 as a floor: if pIC50 stands on it or above, it is criterion met; beneath it, criterion not met.

For orientation, consider the following solved cases.
Compound	Classification
C[C@@H]1CCc2c(-c3ccnc4[nH]ncc34)c(-c3ccc(F)cn3)nn21	criterion not met
CNC(=O)c1cc(-c2c(-c3ccc(F)cn3)nn3c2COC(C)(C(F)(F)F)C3)ccn1 (stereo not shown)	criterion not met
Fc1ccc(-c2nn3c(c2-c2c(F)cnc4[nH]ncc24)C[C@@H]2C[C@@H]23)nc1	criterion met
Cc1cc(-c2c(-c3ccc(F)cn3)nn3c2C[C@@H]2C[C@@H]23)c2cn[nH]c2n1	criterion met
C[C@@H]1n2nc(-c3ccc(F)cn3)c(-c3ccnc4[nH]nc(Cl)c34)c2COC1(C)C (single isomer, unassigned)	criterion met

Could you now consider this next compound?
Q: Confirm if pIC50 reported for the compound CC1(C)Cn2nc(-c3ccc(F)cn3)c(-c3ccn4nccc4c3)c2CO1 is 8 or above.
A: criterion not met

---

Molecular target: human recombinant GST cleaved CSNK1D (Homo sapiens, UniProt P48730)
Construct: GST (cleaved yes)
Test: Purified Enzyme Assay (ADP-Glo CSNK1D Kinase Assay)
Conditions: 2 nM CSNK1D; peptide substrate 150 μM; ATP 20 μM; 45 minutes at room temperature
Reported log10 of IC50 values for the following compounds.
Hey, these are logged values: log10 of IC50, nM being the unit before logging.

Compound	Quantitative Readout
Fc1ccc(-c2nn3c(c2-c2ccncc2)COCC3)cc1	1.08
Fc1ccc(-c2nn3c(c2-c2ccnc4[nH]ncc24)C[C@@H]2C[C@@H]23)nc1	0.60
Cc1nc2[nH]ncc2c(-c2c(-c3ccc(F)cn3)nn3c2CO[C@](C)(C(F)(F)F)C3)c1F (single isomer, unassigned)	1.56
Cc1cc(-c2c(-c3ccc(F)cn3)nn3c2CO[C@](C)(C(F)(F)F)C3)c2cn[nH]c2n1 (single isomer, unassigned)	0.48
Cc1cc(-c2c(-c3ccc(Cl)cc3)nn3c2COCC3)c2cn[nH]c2n1	1.43
Cc1cc(-c2c(-c3ccc(F)cc3)nn3c2OCC(C)(C)C3)c2cn[nH]c2n1	0.00
Cc1cc(-c2c(-c3ccc(F)cc3)nn3c2CCC(F)(F)C3)c2cn[nH]c2n1	0.30
Fc1ccc(-c2nn3c(c2-c2ccnc4[nH]ncc24)[C@@H]2CC[C@H]3C2)cc1 (single isomer, unassigned)	0.00
Fc1ccc(-c2nn3c(c2-c2ccn4nccc4c2)OCCC3)nc1	1.64
Fc1ccc(-c2nn3c(c2-c2ccnc4[nH]ncc24)C[C@H]2C[C@H]23)nc1	1.69

Consider the additional compound presented here.
Q: Look up and state reported log10 of IC50 for C[C@@]1(CF)CCc2c(-c3ccnc4[nH]ncc34)c(-c3ccc(F)cn3)nn2C1 (single isomer, unassigned)
A: 0.00

---

Biological target: human CSNK1D (Homo sapiens, UniProt P48730)
Sequence (P48730 whole entry): as above
Test: Whole Cell nBRET CSNK1D Binding Assay
Conditions: living CHO cells stably expressing human CSNK1D tagged with nanoluciferase; NanoBret tracer 130 nM; 2 hours at 37 C
Reported Endpoint: IC50

Illustrative cases are given below, each with its answer.
Compound	IC50
[2H]C([2H])([2H])[C@]1(C(F)(F)F)Cn2nc(-c3ccc(F)cn3)c(-c3c(F)c(C)nc4[nH]nc(C)c34)c2CO1 (single isomer, unassigned) [Example 430]	1190 nM
CC1(C)Cc2c(-c3ccnc4[nH]ncc34)c(-c3ccc(F)cc3)nn2C1 [Example 231]	4 nM
Cc1cc(-c2c(-c3ccc(F)cc3)nn3c2OCCC3)c2cn[nH]c2n1 [Example 185]	17 nM

Q: Return value of IC50 for input Cc1cn2nccc2cc1-c1c(-c2ccc(F)cn2)nn2c1OCC(C)(C)C2 [Example 451] , no commentary.
A: 5760 nM

Q: Give the value of IC50 reported for the following: Cc1nc2[nH]nc(C)c2c(-c2c(-c3ccc(F)cn3)nn3c2CC2(C3)CC2(F)F)c1F (single isomer, unassigned) [Example 266]
A: 337 nM

---

Molecular target: human recombinant GST cleaved CSNK1D (Homo sapiens, UniProt P48730)
Construct: GST (cleaved yes)
Assay: Purified Enzyme Assay (ADP-Glo CSNK1D Kinase Assay)
Conditions: 2 nM CSNK1D; peptide substrate 150 μM; ATP 20 μM; 45 minutes at room temperature
Reported Endpoint: IC50 (nM)
The answer is to be given in nM; state only the numeric part.

Compound	IC50 [nM]
Fc1ccc(-c2nn3c(c2-c2ccnc4[nH]nc(Cl)c24)C[C@@H]2C[C@@H]23)nc1	2

Q: Dear colleague, please send me the reported IC50 for Cc1cc(-c2c(-c3ccc(F)c(C)n3)nn3c2COC(C)(C)C3)c2c(C)n[nH]c2n1 when you can.
A: 49

Q: Tell me its IC50 given Cc1cc(-c2c(-c3ccc(F)cc3)nn3c2[C@@H]2CC[C@H]3C2)c2cn[nH]c2n1 (single isomer, unassigned) as the entry.
A: 5

Q: Return the recorded IC50 value; entry: Cc1nc2[nH]ncc2c(-c2c(-c3ccc(F)cn3)nn3c2OC[C@@H]2C[C@@H]2C3)c1F (stereo in doubt)
A: 5

---

Target: human recombinant GST cleaved CSNK1D (Homo sapiens, UniProt P48730)
Construct: GST (cleaved yes)
Test: Purified Enzyme Assay (ADP-Glo CSNK1D Kinase Assay)
Conditions: 2 nM CSNK1D; peptide substrate 150 μM; ATP 20 μM; 45 minutes at room temperature
Reported Endpoint: pIC50
Reminder that pIC50 is minus the log10 of a molar concentration.

Compound	Reported Endpoint	Quantitative Readout
Fc1ccc(-c2nn3c(c2-c2ccnc4[nH]ncc24)CC2(C3)CC2(F)F)cc1 (single isomer, unassigned) [Example 250]	pIC50	9.00
Cc1cc(-c2c(-c3ccc(F)cn3)nn3c2CCCC3)c2cn[nH]c2n1	pIC50	8.22
Cc1cc(-c2c(-c3ccc(F)cn3)nn3c2C[C@@]2(C3)CC2(F)F)c2c(Cl)n[nH]c2n1 (single isomer, unassigned)	pIC50	8.30
Cc1cc(-c2c(-c3ccc(Cl)c(F)c3)nn3c2COCC3)c2cn[nH]c2n1	pIC50	6.92
Cc1n[nH]c2nccc(-c3c(-c4ccc(F)cn4)nn4c3CO[C@@](C)(C(F)(F)F)C4)c12 (single isomer, unassigned)	pIC50	7.80
Cc1nc2[nH]ncc2c(-c2c(-c3ccc(F)cn3)nn3c2CC[C@]2(C3)CC2(F)F)c1F (single isomer, unassigned)	pIC50	9.00

Now for another entry.
Q: Answer with reported pIC50 of Cc1nc(-c2c(-c3ccc(F)cc3)nn3c2CC[C@@]2(C3)CC2(F)F)c2cn[nH]c2n1 (single isomer, unassigned)
A: 7.89

---

Target: human CSNK1D (Homo sapiens, UniProt P48730)
Assay: Whole Cell nBRET CSNK1D Binding Assay
Conditions: living CHO cells stably expressing human CSNK1D tagged with nanoluciferase; NanoBret tracer 130 nM; 2 hours at 37 C
Reported Endpoint: log10 of IC50 (log10 of the value in nM)
Please be aware that the numbers have been log10-transformed from IC50 in nM.

Please review the entries below; each comes with its answer.
Compound	log10 of IC50
Fc1ccc(-c2nn3c(c2-c2ccnc4[nH]ncc24)CCC32CC2)nc1	2.29
CC1(CF)CCc2c(-c3ccnc(N)c3)c(-c3ccc(F)cn3)nn2C1 (single isomer, unassigned) [Example 287]	1.83
Cc1cc(-c2c(-c3ccc(F)cc3)nn3c2CC(F)(F)CC3)c2cn[nH]c2n1	1.90
Fc1ccc(-c2nn3c(c2-c2ccnc4[nH]ncc24)OCC2(C3)CC2(F)F)nc1 (single isomer, unassigned) [Example 478]	0.60
Fc1ccc(-c2nn3c(c2-c2ccnc4[nH]nc(Cl)c24)OCC2(CC2)C3)nc1	0.85
C[C@@H]1OCc2c(-c3ccnc4[nH]ncc34)c(-c3ccc(F)cc3)nn2[C@@H]1C (single isomer, unassigned)	2.05
CC1(C)Cc2c(-c3ccnc4[nH]ncc34)c(-c3ccc(F)cn3)nn2C1	1.51

Below: the item to evaluate.
Q: Give the measured log10 of IC50 for Cc1nc(-c2nn3c(c2-c2ccnc4[nH]ncc24)COC(C)(C)C3)ccc1F
A: 2.22

---

Target: human CSNK1D (Homo sapiens)
Assay: Whole Cell nBRET CSNK1D Binding Assay
Conditions: living CHO cells stably expressing human CSNK1D tagged with nanoluciferase; NanoBret tracer 130 nM; 2 hours at 37 C
Rule: IC50 below 100 nM gives Condition met, anything at or above gives Condition not met.

Compound	Classification
CC1n2nc(-c3ccc(F)cn3)c(-c3ccnc4[nH]ncc34)c2COC1(C)C (single isomer, unassigned) [Example 174]	Condition not met

Q: Just wondering, is IC50 of [2H]C([2H])([2H])C1(C([2H])([2H])[2H])Cn2nc(-c3ccc(F)cn3)c(-c3c(Cl)c(C)nc4[nH]ncc34)c2CO1 [Example 407] below 100 nM?
A: Condition not met

Q: In the record for Cc1nc2[nH]ncc2c(-c2c(-c3ccc(F)cn3)nn3c2OC[C@@H]2C[C@@H]2C3)c1F (stereo in doubt) [Example 483] , is IC50 less than 100 nM?
A: Condition met

Q: Bench note: check whether Cc1cc(-c2c(-c3ccc(F)cc3)nn3c2CC[C@@H]3C)c2cn[nH]c2n1 [Example 17] shows IC50 below 100 nM
A: Condition met

Q: Please let me know if Cc1nc2[nH]ncc2c(-c2c(-c3ccc(F)cn3)nn3c2CC[C@@H]2C[C@@H]23)c1F (single isomer, unassigned) [Example 344] shows IC50 below 100 nM.
A: Condition met

Q: Input Fc1ccc(-c2nn3c(c2-c2ccnc4[nH]ncc24)CO[C@H](C(F)(F)F)C3)cc1 [Example 100] ; condition: IC50 strictly below 100 nM. Does it hold?
A: Condition not met

Q: Input [2H]C([2H])([2H])C1(C([2H])([2H])[2H])Cc2c(-c3cc(C)nc4[nH]ncc34)c(-c3ccc(F)cc3)nn2C1 [Example 242] ; condition: IC50 strictly below 100 nM. Does it hold?
A: Condition met

Q: Criterion: IC50 strictly below 100 nM. Is it met by [2H]C([2H])([2H])[C@@]1(C#N)CCc2c(-c3ccnc4[nH]ncc34)c(-c3ccc(F)cn3)nn2C1 (single isomer, unassigned) [Example 324] ?
A: Condition not met

Q: Would you kindly verify if IC50 of CC1(C)Cn2nc(-c3ccc(F)cn3)c(-c3ccn4ncnc4c3)c2CO1 [Example 385] is strictly less than 100 nM?
A: Condition not met

Q: Decide: IC50 of Cc1cc(-c2c(-c3ccc(F)cn3)nn3c2OCCC3)c2cn[nH]c2n1 [Example 187] strictly below 100 nM?
A: Condition not met

Q: Lab note: confirm whether the reported IC50 for this compound is below 100 nM, equality not counting. compound: Cc1nc2[nH]ncc2c(-c2c(-c3ccc(F)cn3)nn3c2CO[C@](C)(C(F)(F)F)C3)c1F (single isomer, unassigned) [Example 421]
A: Condition not met

Q: Answer whether the compound CC1(C)Cn2nc(-c3ccc(F)cn3)c(-c3ccn4nccc4c3)c2O1 [Example 367] has IC50 strictly less than 100 nM
A: Condition not met

Q: Lab note: confirm whether the reported IC50 for this compound is below 100 nM, equality not counting. compound: CCC(=O)Nc1cc(-c2c(-c3ccc(F)cn3)nn3c2COC(C)(C)C3)ccn1 [Example 131]
A: Condition met

Q: Field: below-cutoff. Rule: recorded IC50 strictly less than 100 nM. Subject: Fc1ccc(-c2nn3c(c2-c2ccnc4[nH]ncc24)OCC2(COC2)C3)cc1 [Example 210]
A: Condition met

Q: Just wondering, is IC50 of CC(=O)Nc1cc(-c2c(-c3ccc(F)cc3)nn3c2OCCCC3)ccn1 [Example 215] below 100 nM?
A: Condition met

Just for reference, patent US20230339970A1 is where these values come from.
